# testedSystem: GPR39 (Homo sapiens)
# procedureText: luciferase assay system (SRE luciferase reporter gene) for GPR39 in CV-1 cells
# condition: EC50, CV-1 cells, GPR39 and SRE luciferase adenovirus, treated 6 hours, luminometer
Square brackets hold non-standard residues; d marks the D form. Peptide text beside a SMILES is read from it. * marks the point of attachment. His(Trt) = N[C@@H](Cc1cn(C(c2ccccc2)(c2ccccc2)c2ccccc2)cn1)C(=O)O; His(τ-CHPh2) = N[C@@H](Cc1cn(C(c2ccccc2)c2ccccc2)cn1)C(=O)O; Biotin = O=C1N[C@H]2[C@H](CS[C@H]2CCCCC(=O)*)N1; dPhe(4-CF3) = N[C@H](Cc1ccc(C(F)(F)F)cc1)C(=O)O; Bip = N[C@@H](Cc1ccc(-c2ccccc2)cc1)C(=O)O; dPhe(4-Me) = Cc1ccc(C[C@@H](N)C(=O)O)cc1; d2Nal = N[C@H](Cc1ccc2ccccc2c1)C(=O)O; d3Pal = N[C@H](Cc1cccnc1)C(=O)O; Octanoyl = CCCCCCCC(=O)*; Orn = NCCC[C@H](N)C(=O)O
Kindly supply the reported EC50 values for the records listed here.

Asked: Param item = CCCCCCCC(=O)NCCCC[C@H](NC(=O)[C@@H](N)Cc1cn(C(c2ccccc2)(c2ccccc2)c2ccccc2)cn1)C(=O)N[C@@H](Cc1ccccc1)C(=O)N[C@@H](Cc1c[nH]c2ccccc12)C(=O)O [HKFY-46] (H-[His(Trt)]K(Octanoyl)FW-OH) ; retrieve measured EC50.
Given back: 260 nM

Asked: Given CCCCCCCC(=O)NCCCC[C@H](NC(=O)[C@@H](N)Cc1cn(C(c2ccccc2)(c2ccccc2)c2ccccc2)cn1)C(=O)N[C@H](Cc1ccc(C(F)(F)F)cc1)C(=O)N[C@@H](Cc1ccc(O)cc1)C(=O)O [HKFY-76] (H-[His(Trt)]K(Octanoyl)[dPhe(4-CF3)]Y-OH) , state its recorded EC50.
Given back: 7 nM

Asked: Query (compound): CCCCCCCC(=O)NCCC[C@H](NC(=O)[C@@H](N)Cc1cn(C(c2ccccc2)c2ccccc2)cn1)C(=O)N[C@H](Cc1ccc(C)cc1)C(=O)N[C@@H](Cc1ccc(O)cc1)C(=O)O [HKFY-71] (H-[His(τ-CHPh2)][Orn](Octanoyl)[dPhe(4-Me)]Y-OH) ; field requested: EC50
Given back: 12 nM

Asked: Look at this compound and give its reported EC50. CCCCCCCC(=O)NCCCC[C@H](NC(=O)[C@H](Cc1cn(C(c2ccccc2)(c2ccccc2)c2ccccc2)cn1)NC(=O)CCCC[C@@H]1SC[C@@H]2NC(=O)N[C@@H]21)C(=O)N[C@@H](Cc1ccc(-c2ccccc2)cc1)C(=O)N[C@@H](Cc1ccc(O)cc1)C(=O)O [HKFY-45] (Biotin-[His(Trt)]K(Octanoyl)[Bip]Y-OH)
Given back: 140 nM

Asked: I would be grateful if you could share the reported EC50 for CCCCCCCC(=O)NCCCC[C@H](NC(=O)[C@@H](N)Cc1cn(C(c2ccccc2)(c2ccccc2)c2ccccc2)cn1)C(=O)N[C@H](Cc1ccc2ccccc2c1)C(=O)N[C@@H](Cc1ccc(O)cc1)C(=O)O [HKFY-74] (H-[His(Trt)]K(Octanoyl)[d2Nal]Y-OH) .
Given back: 8 nM

Asked: What measured EC50 goes with CCCCCCCC(=O)NCCCC[C@H](NC(=O)[C@@H](N)Cc1cn(-c2ccc(C(C)(C)C)cc2)cn1)C(=O)N[C@H](Cc1ccc(C)cc1)C(=O)N[C@@H](Cc1ccc(O)cc1)C(=O)O [HKFY-61] ?
Given back: 20 nM

Asked: Look at this compound and give its reported EC50. CCCCCCCC(=O)NCCCC[C@H](NC(=O)[C@H](Cc1cn(C(c2ccccc2)(c2ccccc2)c2ccccc2)cn1)NC(=O)CCCC[C@@H]1SC[C@@H]2NC(=O)N[C@@H]21)C(=O)N[C@@H](Cc1ccccc1)C(=O)N[C@@H](Cc1ccc(O)cc1)C(=O)O [HKFY-2] (Biotin-[His(Trt)]K(Octanoyl)FY-OH)
Given back: 140 nM

Asked: Field request: EC50 | item: CCCCCCCC(=O)NCCCC[C@H](NC(=O)[C@@H](N)Cc1cn(C(c2ccccc2)(c2ccccc2)c2ccccc2)cn1)C(=O)N[C@H](Cc1cccnc1)C(=O)N[C@@H](Cc1ccc(O)cc1)C(=O)O [HKFY-73] (H-[His(Trt)]K(Octanoyl)[d3Pal]Y-OH)
Given back: 23 nM

====

# testedSystem: GPR39 (Homo sapiens, UniProt O43194)
# Sequence (O43194 whole entry): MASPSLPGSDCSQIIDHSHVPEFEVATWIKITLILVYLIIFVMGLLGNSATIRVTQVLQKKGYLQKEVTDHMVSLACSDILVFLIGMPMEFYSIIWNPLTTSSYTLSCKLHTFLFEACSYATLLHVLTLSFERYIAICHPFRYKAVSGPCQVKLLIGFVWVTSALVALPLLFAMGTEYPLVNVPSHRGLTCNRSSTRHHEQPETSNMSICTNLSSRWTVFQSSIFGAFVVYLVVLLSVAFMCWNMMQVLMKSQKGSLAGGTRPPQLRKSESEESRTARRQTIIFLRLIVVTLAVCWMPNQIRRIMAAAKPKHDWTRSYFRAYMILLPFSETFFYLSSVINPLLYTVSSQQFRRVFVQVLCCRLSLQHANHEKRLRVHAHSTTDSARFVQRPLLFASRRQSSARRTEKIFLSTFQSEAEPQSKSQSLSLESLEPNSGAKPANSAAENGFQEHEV
Square brackets hold non-standard residues; d marks the D form. Peptide text beside a SMILES is read from it. * marks the point of attachment. His(Trt) = N[C@@H](Cc1cn(C(c2ccccc2)(c2ccccc2)c2ccccc2)cn1)C(=O)O; dPhe(4-Me) = Cc1ccc(C[C@@H](N)C(=O)O)cc1; Octanoyl = CCCCCCCC(=O)*
Assignment: determine reported ECmax (-fold induction over basal) for the given compounds.

Asked: Which value of ECmax (-fold induction over basal) has been reported for "CCCCCCCC(=O)NCCCC[C@H](NC(=O)[C@@H](N)Cc1cn(Cc2cccc3ccccc23)cn1)C(=O)N[C@@H](Cc1ccccc1)C(=O)N[C@@H](Cc1ccc(O)cc1)C(=O)O" in the records?
Given back: 14 ± 2.12 -fold induction over basal

Asked: Data request, read-out ECmax (-fold induction over basal), for "CCCCCCCC(=O)NCCCC[C@H](NC(=O)[C@@H](N)Cc1c[nH]c(-c2ccccc2)n1)C(=O)N[C@H](Cc1ccc(C)cc1)C(=O)N[C@@H](Cc1ccc(O)cc1)C(=O)O"
Given back: 8.5 ± 2.3 -fold induction over basal

Asked: Request the reported ECmax (-fold induction over basal) associated with "CCCCCCCC(=O)NCCCC[C@H](NC(=O)[C@@H](N)Cc1c[nH]c(-c2ccc(C(C)(C)C)cc2)n1)C(=O)N[C@H](Cc1ccc(C)cc1)C(=O)N[C@@H](Cc1ccc(O)cc1)C(=O)O"
Given back: 28.2 ± 2.5 -fold induction over basal

Asked: If you can, please state the reported ECmax (-fold induction over basal) value of CCCCCCCC(=O)NCCCC[C@H](NC(=O)[C@@H](N)Cc1cn(C(c2ccccc2)(c2ccccc2)c2ccccc2)cn1)C(=O)N[C@H](Cc1ccc(C)cc1)C(=O)N[C@@H](Cc1ccc(O)cc1)C(=O)O [HKFY-30] (H-[His(Trt)]K(Octanoyl)[dPhe(4-Me)]Y-OH) .
Given back: 23.88 ± 3.04 -fold induction over basal

Asked: So what's the measured ECmax (-fold induction over basal) for this one? CCCCCCCC(=O)NCCCC[C@H](NC(=O)[C@@H](N)Cc1cn(C(c2ccccc2)(c2ccccc2)c2ccccc2)cn1)C(=O)N[C@@H](Cc1ccccc1)C(=O)N[C@@H](Cc1ccc(O)cc1)C(=O)N[C@@H](Cc1c[nH]cn1)C(=O)N[C@@H](CCC(N)=O)C(=O)N[C@@H](CCC(N)=O)C(=O)N[C@@H](C)C(=O)N[C@@H](CCCNC(=N)N)C(=O)N[C@@H](Cc1ccccc1)C(N)=O [HKFY-42] (H-[His(Trt)]K(Octanoyl)FYHQQARF-NH2)
Given back: 11.8 ± 0.02 -fold induction over basal

Asked: Need ECmax (-fold induction over basal) of "CCCCCCCC(=O)NCCCC[C@H](NC(=O)[C@@H](N)Cc1cn(-c2ccc(C(C)(C)C)cc2)cn1)C(=O)N[C@H](Cc1ccc(C)cc1)C(=O)N[C@@H](Cc1ccc(O)cc1)C(=O)O" , thanks.
Given back: 9.88 ± 1.8 -fold induction over basal

Asked: Field request: ECmax (-fold induction over basal) | item: CCCCCCCC(=O)NCCCC[C@H](NC(=O)[C@@H](N)Cc1cn(C(c2ccccc2)(c2ccccc2)c2ccccc2)cn1)C(=O)N[C@@H](Cc1ccccc1)C(=O)N[C@@H](Cc1ccc(O)cc1)C(=O)N[C@@H](CO)C(=O)N[C@@H](CC(=O)O)C(=O)N[C@@H](CCC(N)=O)C(=O)N[C@@H](CCC(N)=O)C(=O)N[C@@H](C)C(=O)N[C@@H](CCCNC(=N)N)C(=O)N[C@@H](Cc1ccccc1)C(N)=O [HKFY-38] (H-[His(Trt)]K(Octanoyl)FYSDQQARF-NH2)
Given back: 16.5 ± 0.02 -fold induction over basal

====

Exercise: for every item that follows, state its recorded ECmax (-fold induction over basal).
Square brackets hold non-standard residues; d marks the D form. Peptide text beside a SMILES is read from it. * marks the point of attachment. His(Trt) = N[C@@H](Cc1cn(C(c2ccccc2)(c2ccccc2)c2ccccc2)cn1)C(=O)O; dPhe(4-Br) = N[C@H](Cc1ccc(Br)cc1)C(=O)O; d3Pal = N[C@H](Cc1cccnc1)C(=O)O; Lauroyl = CCCCCCCCCCCC(=O)*; Octanoyl = CCCCCCCC(=O)*

Asked: Form entry - test system: GPR39 (Homo sapiens); read-out: ECmax (-fold induction over basal); compound: CCCCCCCC(=O)NCCCC[C@H](NC(=O)[C@@H](N)Cc1cn(C(c2ccccc2)(c2ccccc2)c2ccccc2)cn1)C(=O)N[C@H](Cc1ccc(Br)cc1)C(=O)N[C@@H](Cc1ccc(O)cc1)C(=O)O [HKFY-29] (H-[His(Trt)]K(Octanoyl)[dPhe(4-Br)]Y-OH)
Given back: 26.8 ± 1.87 -fold induction over basal

Asked: Notebook entry, GPR39 (Homo sapiens) assay: ECmax (-fold induction over basal) of CCCCCCCC(=O)NCCCC[C@H](NC(=O)[C@@H](N)Cc1cn(C(c2ccccc2)(c2ccccc2)c2ccccc2)cn1)C(=O)N[C@H](Cc1cccnc1)C(=O)N[C@@H](Cc1ccc(O)cc1)C(=O)O [HKFY-73] (H-[His(Trt)]K(Octanoyl)[d3Pal]Y-OH) = ?
Given back: 11.6 ± 2.3 -fold induction over basal

Asked: Provide value of ECmax (-fold induction over basal) for this record tested with GPR39 (Homo sapiens): CCCCCCCC(=O)NCCCC[C@H](NC(=O)[C@@H](N)Cc1cn(C(c2ccccc2)(c2ccccc2)c2ccccc2)cn1)C(=O)N[C@@H](Cc1ccc(O)cc1)C(=O)N[C@@H](Cc1ccc(O)cc1)C(=O)O [HKFY-48] (H-[His(Trt)]K(Octanoyl)YY-OH)
Given back: 14.4 ± 2.7 -fold induction over basal

Asked: Short answer please: ECmax (-fold induction over basal), GPR39 (Homo sapiens), entry CCCCCCCCCCCC(=O)NCCCC[C@H](NC(=O)[C@@H](N)Cc1cn(C(c2ccccc2)(c2ccccc2)c2ccccc2)cn1)C(=O)N[C@@H](Cc1ccccc1)C(=O)N[C@@H](Cc1ccc(O)cc1)C(=O)O [HKFY-25] (H-[His(Trt)]K(Lauroyl)FY-OH)
Given back: 7.72 ± 0.57 -fold induction over basal

Asked: Checklist item: ECmax (-fold induction over basal) tested on GPR39 (Homo sapiens), entry "CCCCCCCC(=O)NCCCC[C@H](NC(=O)[C@@H](N)Cc1cn(-c2ccccc2)c(-c2ccccc2)n1)C(=O)N[C@H](Cc1ccc(C)cc1)C(=O)N[C@@H](Cc1ccc(O)cc1)C(=O)O" , value?
Given back: 6.76 ± 2.2 -fold induction over basal
